Test system: bundibugyo Ebola virus (pseudotype VSV)
test.protocol: microbe, parasite or virus in culture
Assay type: cell-based
assay.setup: read-out: C values
pIC50: −log10 of the molar value.
experimental.readout: pIC50

As a guide, the following entries are already answered.
> print(dat)
                              smiles.string  observed.measurement
1  COc1ccc(N(CCCN(C)C)S(=O)(=O)c2ccccc2)c(-c2ccccc2)c1                 ~7.30
2  CCN1CCC(CN(c2ccc(OC)cc2-c2ccccc2)S(=O)(=O)c2ccccc2)CC1                 ~7.30
3  COc1ccc(N(CC2CCN(C)CC2)S(=O)(=O)c2ccccc2)c(-c2ccccc2)c1                 ~7.30

Moving on to the next compound.
Task: Sample CCN(CC)CCCN(c1ccc(OC)cc1-c1ccccc1)S(=O)(=O)c1ccccc1 — what was its pIC50?
Output: ~7.30

###

Test system: pseudotype VSV (expressing GFP) having the surface glycoprotein of Ebola virus (zaire sp.)
test.protocol: microbe, parasite or virus in culture
Assay type: cell-based
assay.setup: Vesicular stomatitis virus, Vero C1008, 18 h, Compound Conc. 0.020 μM; read-out: Viral Infection rate (%)
activity at 0.02 µM values for the compounds below.

> print(dat)
                                   compound  observed.measurement
1  COc1ccc(N(CC2CCCN(C)C2)S(=O)(=O)c2ccccc2)c(-c2ccccc2)c1 (stereo not shown) [4-42]                  101%
2  CCN1CCC(CN(c2ccc(OC)cc2-c2ccccc2)S(=O)(=O)c2ccccc2)CC1 [4-21]                 64.6%
3  COc1ccc(N(CCCN(C)C)S(=O)(=O)c2ccccc2)c(-c2ccccc2)c1 [4-27]                 81.5%

Moving on to the next compound.
Task: Sample CNCCCN(c1ccc(OC)cc1-c1ccccc1)S(=O)(=O)c1ccccc1 [4-30] — what was its activity at 0.02 µM?
Output: 91%

###

System: pseudotype VSV (expressing GFP) having the surface glycoprotein of Ebola virus (zaire sp.)
test.protocol: microbe, parasite or virus in culture
Format: cell-based
assay.setup: Vesicular stomatitis virus, Vero C1008, 18 h, Compound Conc. 1.25 μM; read-out: Viral Infection rate (%)
activity at 1.25 µM less than 30% is true (1); activity at 1.25 µM greater than or equal to 30% is false (0).

Illustrative cases are given below, each with its answer.
> print(dat)
                                   molecule      class
1  CCN(CC)CCCN(c1ccc(OC)cc1[N+](=O)[O-])S(=O)(=O)c1cccc(C)c1  false (0)
2  CCN1CCC(CN(c2ccc(OC)cc2-c2ccccc2)S(=O)(=O)c2cccc(F)c2)CC1   true (1)
3  CCN1CCC(CN(c2ccc(OC)cc2-c2ccccc2)S(=O)(=O)c2ccccc2)CC1   true (1)

Task: Problem: For the molecule CCN1CCCC(CN(c2ccc(OC)cc2-c2ccccc2)S(=O)(=O)c2ccccc2)C1 (stereo not drawn) , is activity at 1.25 µM under 30%?
Output: true (1)

Task: Consider next the molecule CCN1CCC(CN(c2ccc(C(C)C)cc2-c2ccccc2)S(=O)(=O)c2ccccc2)CC1 in the same way.
Output: false (0)

Task: Consider next the molecule COc1ccc(N(CCN(C)C)S(=O)(=O)c2ccccc2)c(-c2ccccc2)c1 in the same way.
Output: true (1)

Task: Consider next the molecule COc1ccc(N(CCCN)S(=O)(=O)c2ccccc2)c(-c2ccccc2)c1 in the same way.
Output: false (0)

Task: Consider next the molecule CCN1CCC(CN(c2ccc(OC)cc2-c2ccc(F)cc2)S(=O)(=O)c2ccccc2)CC1 in the same way.
Output: true (1)

###

System: pseudotype VSV (expressing GFP) having the surface glycoprotein of Ebola virus (zaire sp.)
test.protocol: microbe, parasite or virus in culture
Format: cell-based
assay.setup: Vesicular stomatitis virus, Vero C1008, 18 h, Compound Conc. 1.25 μM; read-out: Viral Infection rate (%)
experimental.readout: activity at 1.25 µM (%)
Expressed in %, but write only the number.

As a guide, the following entries are already answered.
> print(dat)
                              smiles.string  experimental.readout  observed.measurement
1  CCN(CC)CCCN(c1ccc(OC)cc1[N+](=O)[O-])S(=O)(=O)c1ccc(F)cc1   activity at 1.25 µM                  52.8
2  CCN1CCC(CN(c2ccc(OC)cc2-c2ccccc2F)S(=O)(=O)c2ccccc2)CC1   activity at 1.25 µM                     1
3  CCN(CC)CCCN(c1ccc(OC)cc1[N+](=O)[O-])S(=O)(=O)c1ccccc1C   activity at 1.25 µM                    37
4  CCN(CC)CCCN(c1ccccc1-c1ccccc1)S(=O)(=O)c1ccc(OC)cc1   activity at 1.25 µM                  7.82
5  CCN(CC)CCCN(c1ccc(OC)cc1[N+](=O)[O-])S(=O)(=O)c1cccc2ccccc12   activity at 1.25 µM                  20.8

Task: Sample CCN(CC)CCCN(c1ccccc1-c1ccccc1)S(=O)(=O)c1ccccc1 — what was its activity at 1.25 µM?
Output: 10.8

Task: Consider next the compound CCN(CC)CCCN(c1ccc(OC)cc1[N+](=O)[O-])S(=O)(=O)c1ccccc1F in the same way.
Output: 54.9

Task: Consider next the compound COc1ccc(N(CCCN(C)C)S(=O)(=O)c2ccccc2)c(-c2ccccc2)c1 in the same way.
Output: 0.18

###

Test system: pseudotype VSV (expressing GFP) having the surface glycoprotein of Ebola virus (zaire sp.)
test.protocol: microbe, parasite or virus in culture
Assay type: cell-based
assay.setup: Vesicular stomatitis virus, Vero C1008, 18 h, Compound Conc. 0.312 μM; read-out: Viral Infection rate (%)
experimental.readout: activity at 0.312 µM (%)
Expressed in %, but write only the number.

As a guide, the following entries are already answered.
> print(dat)
                                   molecule  experimental.readout  result.unit  observed.measurement
1  CCN(CC)CCCN(c1ccc(OC)cc1[N+](=O)[O-])S(=O)(=O)c1ccccc1C [4-7]  activity at 0.312 µM            %                  87.2
2  CCN(CC)CCCN(c1ccc(OC)cc1-c1ccccc1)S(=O)(=O)c1ccccc1 [4-17]  activity at 0.312 µM            %                  1.91

Task: Sample CCN(CC)CCCN(c1ccc(OC)cc1[N+](=O)[O-])S(=O)(=O)c1cccc2ccccc12 [4-9] — what was its activity at 0.312 µM?
Output: 82.5

Task: Consider next the molecule CCN(CC)CCCN(c1ccc(OC)cc1-c1ccc(F)cc1)S(=O)(=O)c1ccccc1 [4-68] in the same way.
Output: 52.8

Task: Consider next the molecule COc1ccc(N(CC2CCNCC2)S(=O)(=O)c2ccccc2)c(-c2ccccc2)c1 [4-19] in the same way.
Output: 83.3

Task: Consider next the molecule CCN(CC)CCCN(c1ccccc1-c1ccccc1)S(=O)(=O)c1ccc(OC)cc1 [4-14] in the same way.
Output: 77.4

Task: Consider next the molecule COc1ccc(N(CCN(C)C)S(=O)(=O)c2ccccc2)c(-c2ccccc2)c1 [4-33] in the same way.
Output: 81.1

Task: Consider next the molecule CCN1CCC(CN(c2ccc(OC)cc2-c2ccccc2)S(=O)(=O)c2cccc(F)c2)CC1 [4-63] in the same way.
Output: 34.3

Task: Consider next the molecule COc1ccc(N(CCCN(C)C)S(=O)(=O)c2ccccc2)c(-c2ccccc2)c1 [4-27] in the same way.
Output: 3.49

Task: Consider next the molecule COc1ccc(N(CCN2CCCCC2)S(=O)(=O)c2ccccc2)c(-c2ccccc2)c1 [4-35] in the same way.
Output: 89.5

Task: Consider next the molecule CCN1CCCC(CN(c2ccc(OC)cc2-c2ccccc2)S(=O)(=O)c2ccccc2)C1 (centres unmarked) [4-25] in the same way.
Output: 58.1

Task: Consider next the molecule COc1ccc(N(CC2CCCNC2)S(=O)(=O)c2ccccc2)c(-c2ccccc2)c1 (centres unmarked) [4-23] in the same way.
Output: 100

Task: Consider next the molecule COc1ccc(N(CC2CCCN(C)C2)S(=O)(=O)c2ccccc2)c(-c2ccccc2)c1 (centres unmarked) [4-42] in the same way.
Output: 93

###

Tested on: pseudotype VSV (expressing GFP) having the surface glycoprotein of Ebola virus (zaire sp.)
test.protocol: microbe, parasite or virus in culture
Format: cell-based
assay.setup: Vesicular stomatitis virus, Vero C1008, 18 h, Compound Conc. 0.020 μM; read-out: Viral Infection rate (%)
experimental.readout: activity at 0.02 µM (%)
Expressed in %, but write only the number.

> print(dat)
                              smiles.string  observed.measurement
1  COc1ccc(N(CC2CCN(C)CC2)S(=O)(=O)c2ccccc2)c(-c2ccccc2)c1                  78.8
2  CCN1CCC(CN(c2ccc(C(C)C)cc2-c2ccccc2)S(=O)(=O)c2ccccc2)CC1                   101
3  CCN1CCC(CN(c2ccc(C(C)(C)C)cc2-c2ccccc2)S(=O)(=O)c2ccccc2)CC1                   104
4  CCN1CCC(CN(c2ccc(OC)cc2-c2ccccc2)S(=O)(=O)c2cccc(F)c2)CC1                  96.2
5  CCN(CC)CCCN(c1ccc(OC)cc1-c1ccccc1)S(=O)(=O)c1ccccc1                  72.6
6  CCN1CCC(CN(c2ccc(OC)cc2-c2ccc(F)cc2)S(=O)(=O)c2ccccc2)CC1                  84.5
7  CCN1CCC(CN(c2ccc(OC)cc2-c2cccc(F)c2)S(=O)(=O)c2ccccc2)CC1                    90

Task: Sample CCOc1ccc(N(CC2CCN(CC)CC2)S(=O)(=O)c2ccccc2)c(-c2ccccc2)c1 — what was its activity at 0.02 µM?
Output: 103
